# reported unfolding enthalpy (van 't Hoff); entries follow
B1: Cytochrome c-553, B8C6L5 (parent)
chain: MKLTIVAALIASASAWTTPKSFESVKAAVAGAAVTAGVAVSPAFAGDVGAGEQIFNANCAACHAGGQNVIMPDKTLEKEALEQYLAGGRNEKAVMTQVTNGKNAMPAFGGRLSDEDIANVASYVIATSEAGWD

- Variants of: B1
- Measurement Conditions: Thalassiosira pseudonana; pH 7.4; Thermal; UV/Vis spectroscopy; HEPES; transition: 2; reversible: > 90% (Yes); whole UniProt chain shown
Kindly provide the numeric value in kcal/mol only, without the unit symbol.

| Sequence Variant | unfolding enthalpy (van 't Hoff) / kcal/mol |
| --- | --- |
| A86S | 43.7 |
| A93S | 45.9 |
| A93S A126S | 38.2 |

Field request: unfolding enthalpy (van 't Hoff) | item: `A126S` 40.8
